system: SN12C; assay: NCI screen antiproliferative activity, renal SN12C
readout.name: GI50 (nM)
Answers are plain numbers, in nM.

Record GI50 for all entries; do not skip any.
1. COc1cnc2c(c1)C(=O)c1c-2n(CCCN(C)C)c(=O)c2ccccc12
2. COc1cc2c3c(n(CCCN4CCOCC4)c(=O)c2cc1OC)-c1ncccc1C3=O
3. COc1cnc2c(c1)C(=O)c1c-2n(CCCN(C)C)c(=O)c2cc([N+](=O)[O-])ccc12
4. COc1cc2c3c(n(CCCN4CCOCC4)c(=O)c2cc1OC)-c1ccncc1C3=O.O=C(O)C(F)(F)F
5. COc1cnc2c(c1)C(=O)c1c-2n(CCCN2CCOCC2)c(=O)c2cc(OC)c(OC)cc12.Cl [Compound 56, Hydrochloride]
6. COc1cc2c3c(n(CCCN)c(=O)c2cc1OC)-c1ncccc1C3=O.Cl [Compound 32, Hydrochloride]
7. COc1cnc2c(c1)C(=O)c1c-2n(CCCN2CCOCC2)c(=O)c2cc([N+](=O)[O-])ccc12
8. COc1cnc2c(c1)C(=O)c1c-2n(CCCN2CCOCC2)c(=O)c2ccccc12

A.
[260, 520, 57, 5900, 340, 2880, 43, 2600]
